- target.desc: Luciferin 4-monooxygenase (Photinus pyralis) (UniProt P08659)
- Sequence (P08659 whole entry, looked up): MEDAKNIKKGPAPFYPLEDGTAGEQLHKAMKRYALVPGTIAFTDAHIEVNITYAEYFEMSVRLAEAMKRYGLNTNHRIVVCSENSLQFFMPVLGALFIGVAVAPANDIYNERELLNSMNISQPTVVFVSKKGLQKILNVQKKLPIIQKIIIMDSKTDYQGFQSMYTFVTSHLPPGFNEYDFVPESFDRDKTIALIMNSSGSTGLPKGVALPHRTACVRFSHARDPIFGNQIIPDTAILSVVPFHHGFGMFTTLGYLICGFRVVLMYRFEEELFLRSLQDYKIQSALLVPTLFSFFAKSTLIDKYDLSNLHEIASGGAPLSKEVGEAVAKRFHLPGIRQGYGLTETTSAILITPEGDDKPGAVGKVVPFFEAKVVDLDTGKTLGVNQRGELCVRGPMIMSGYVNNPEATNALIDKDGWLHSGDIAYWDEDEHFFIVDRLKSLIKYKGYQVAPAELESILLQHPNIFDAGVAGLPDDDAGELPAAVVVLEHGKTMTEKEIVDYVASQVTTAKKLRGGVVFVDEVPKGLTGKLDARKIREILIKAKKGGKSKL
- method.notes: firefly luciferase enzyme inhibitors, primary screen, biochemical, luminescence, purified enzyme, 2006 set (AID 1141);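 note: cell-free assay with purified firefly luciferase at 100 ng per well in PBS; test concentration not given here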
- details: SteadyGlo luminescence, 30 min, higher = more signal, called active from +8 up or from −8 down
Entries and their measured z-score follow.
reported.metric: z-score

>>> df
                              smiles_record  reported_metric  recorded_number
0  C[C@@H](ON=C1[C@H]2CCn3c(=O)n(-c4ccccc4)c(=O)n3[C@H]2[C@H](O)[C@@H]2O[C@H]12)c1cn([C@H](CO)Cc2ccccc2)nn1          z-score           -0.116
1  O=C1[C@H]2[C@H]3[C@H](O)[C@H](O)CC(=NOCc4ccccc4)[C@H]3CC[C@H]2C(=O)N1Cc1ccccc1          z-score            0.983
2  CCOC(=O)NN=C1C[C@@H](O)[C@@H](O)[C@@H]2[C@@H]3C(=O)N(Cc4ccc5c(c4)OCO5)C(=O)[C@@H]3CC[C@@H]12          z-score            0.556
3  CO[C@@H]1C=CCC(=O)N2CCC[C@H]2C(=O)OC[C@H](C)C(=O)OC[C@H]1C          z-score            -1.87

====

- method.notes: cell viability in Huh7 cells, primary screen, cytotoxicity control for HCV replication inhibitor project, CellTiter-Glo luminescence, basal, 48 h (AID 1143);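 note: Huh7 hepatoma cells carrying a hepatitis C replication reporter with no stimulus; test concentration not given here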
- details: Huh7 HCV replicon, higher = more signal, called active from +8 up or from −8 down

compound	z-score
CCOC(=O)[C@H](Cc1ccccc1)NC(=O)CCC1CC(OC(=O)NCc2cccc3ccccc23)CC2(CCCC(COC(=O)NCCCN3CCCC3=O)O2)O1 (stereo not given in full)	-0.486
C#CCCCON=C1C[C@@H](O)[C@@H](O)[C@@H]2[C@@H]3C(=O)N(C4CCCCC4)C(=O)[C@@H]3CC[C@H]12	-0.379
Cc1cc2c(nc1C)CCCN2CC(C)ON=C[C@@H](C)[C@H](OCc1ccccc1)C(C)C (stereo not given in full)	0.615
CCOC(=O)[C@H](CC(C)C)NC(=O)CCC1CC(OC(=O)NCc2cccc3ccccc23)CC2(CCCC(COC(=O)NCc3ccccc3)O2)O1 (stereo not given in full)	-0.649
CC(C)=NO[C@@H](C)c1cc(-c2c(C)cc(C)cc2C)no1	-2.11

====

- target.desc: Alpha-bungarotoxin (Bungarus multicinctus) (UniProt P60615)
- Sequence (P60615 whole entry, looked up): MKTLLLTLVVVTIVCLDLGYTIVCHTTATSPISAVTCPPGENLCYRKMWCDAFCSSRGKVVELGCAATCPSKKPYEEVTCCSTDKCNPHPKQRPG
- method.notes: alpha-bungarotoxin binders on microarray, profiling panel, artefact control for SMM control protein annotation, biochemical, small-molecule microarray, Alexa647 label, 635/667 nm fluorescence (AID 1117)
- details: alpha-BTX-A647 binding fluorescence, higher = more signal
# binarize composite z-score: threshold -0.2 inclusive, high side Criterion met, low side Criterion not met

>>> print(df.to_string())
                                   molecule                               target_desc              class
0  CCOC(=O)NN=C1C[C@@H](O)[C@@H](O)[C@@H]2[C@@H]3C(=O)N(Cc4ccccc4)C(=O)[C@@H]3CC[C@@H]12  Alpha-bungarotoxin (Bungarus multicinctus) (UniProt P60615)      Criterion met
1   CC(C)C(=O)N[C@@H]1CCCN1C(=O)C=Cc1ccccc1  Alpha-bungarotoxin (Bungarus multicinctus) (UniProt P60615)      Criterion met
2  CC(C)=NO[C@@H](C)c1cc(-c2c(C)cc(C)cc2C)no1  Alpha-bungarotoxin (Bungarus multicinctus) (UniProt P60615)      Criterion met
3  CO[C@H]1COC(=O)CC=C[C@@H](C)COC(=O)[C@@H](OCc2ccccc2)C=C[C@@H]1C  Alpha-bungarotoxin (Bungarus multicinctus) (UniProt P60615)      Criterion met
4              CC(C)=NOC[C@@H](O)COCc1ccco1  Alpha-bungarotoxin (Bungarus multicinctus) (UniProt P60615)  Criterion not met
5  CC(C)=NOCc1ccc(-c2cn([C@@H]3COC[C@H]3O)nn2)cc1  Alpha-bungarotoxin (Bungarus multicinctus) (UniProt P60615)      Criterion met
6  CC(=O)OC[C@H]1O[C@H](C#CC(C)(C)C)C=C[C@@H]1OC(C)=O  Alpha-bungarotoxin (Bungarus multicinctus) (UniProt P60615)      Criterion met
7  CC(C)CON=C1C[C@@H](O)[C@@H](O)[C@@H]2[C@@H]3C(=O)N(c4cccc(Oc5ccccc5)c4)C(=O)[C@@H]3CC[C@H]12  Alpha-bungarotoxin (Bungarus multicinctus) (UniProt P60615)      Criterion met
8  CCOC(=O)[C@H](CC(C)C)NC(=O)CCC1CC(OC(=O)NCc2cccc3ccccc23)CC2(CCCC(COC(=O)NCc3ccccc3)O2)O1 (some centres undefined)  Alpha-bungarotoxin (Bungarus multicinctus) (UniProt P60615)  Criterion not met
